Reported TGI values follow for various compounds
System: LXFL 529 NSCLC
assay.explanation: NCI tumour cell line growth inhibition, 48 h

Example cases with answers are listed next.
* Cc1cc(Cl)ccc1NC(=O)CCCC(=O)C1CCC/C1=N\NC(=O)CC#N (configuration not stated) | > 100 µM
* CCOC(=O)C1=C(C)N(Cc2ccccc2)C(=O)C1CC#N (configuration not stated) | > 100 µM

Incoming: Form field: TGI recorded for CSc1nc2c(nc(N)n2C2OC(COC(C)=O)C(OC(C)=O)C(OC(C)=O)C2OC(C)=O)c(=O)n1C (configuration not stated) with LXFL 529 NSCLC (enter value)
Outgoing: > 100 µM

Incoming: Form field: TGI recorded for CC1(c2cccc(N)c2)C2C(=O)NC(=O)C1C(=O)NC2=O (configuration not stated) with LXFL 529 NSCLC (enter value)
Outgoing: > 100 µM

Incoming: Form field: TGI recorded for `CCOc1ccc(/C(C=O)=C(\Cl)c2ccc(OC)c(OC)c2)cc1` with LXFL 529 NSCLC (enter value)
Outgoing: > 100 µM

Incoming: Form field: TGI recorded for `C[C@]12CCC[C@H](O)[C@H]1C[C@H](CO)CC2` with LXFL 529 NSCLC (enter value)
Outgoing: > 100 µM

Incoming: Form field: TGI recorded for COC(=O)C1=Cc2cc(OC)c(OC)cc2[C@H](c2ccc(OC)c(OC)c2)C1C(=O)OC (some centres not stated) with LXFL 529 NSCLC (enter value)
Outgoing: > 100 µM
